Measurement target: Angiotensin-converting enzyme (Homo sapiens)
Test description: Inhibition of ACE at 200 uM
Each entry below carries its recorded inhibition.
Assay metric: inhibition (%)

> print(dat)
                      molecule.smiles  assay.metric  unit.name  observed
1  O=c1c2ccc(O)c(O)c2oc2c(O)c(O)ccc12    inhibition          %      46.2
2  O=c1c2ccc(O)c(O)c2oc2cc(O)cc(O)c12    inhibition          %      67.7
3  O=c1c2cc(O)c(O)cc2oc2cc(O)cc(O)c12    inhibition          %      23.5
4  O=c1c2cc(O)c(O)cc2oc2c(O)c(O)ccc12    inhibition          %        90
5  O=c1c2cc(O)c(O)cc2oc2cc(O)c(O)cc12    inhibition          %      17.2

* * *

Measurement target: Angiotensin-converting enzyme (Homo sapiens, UniProt P12821)
Sequence (P12821 whole entry): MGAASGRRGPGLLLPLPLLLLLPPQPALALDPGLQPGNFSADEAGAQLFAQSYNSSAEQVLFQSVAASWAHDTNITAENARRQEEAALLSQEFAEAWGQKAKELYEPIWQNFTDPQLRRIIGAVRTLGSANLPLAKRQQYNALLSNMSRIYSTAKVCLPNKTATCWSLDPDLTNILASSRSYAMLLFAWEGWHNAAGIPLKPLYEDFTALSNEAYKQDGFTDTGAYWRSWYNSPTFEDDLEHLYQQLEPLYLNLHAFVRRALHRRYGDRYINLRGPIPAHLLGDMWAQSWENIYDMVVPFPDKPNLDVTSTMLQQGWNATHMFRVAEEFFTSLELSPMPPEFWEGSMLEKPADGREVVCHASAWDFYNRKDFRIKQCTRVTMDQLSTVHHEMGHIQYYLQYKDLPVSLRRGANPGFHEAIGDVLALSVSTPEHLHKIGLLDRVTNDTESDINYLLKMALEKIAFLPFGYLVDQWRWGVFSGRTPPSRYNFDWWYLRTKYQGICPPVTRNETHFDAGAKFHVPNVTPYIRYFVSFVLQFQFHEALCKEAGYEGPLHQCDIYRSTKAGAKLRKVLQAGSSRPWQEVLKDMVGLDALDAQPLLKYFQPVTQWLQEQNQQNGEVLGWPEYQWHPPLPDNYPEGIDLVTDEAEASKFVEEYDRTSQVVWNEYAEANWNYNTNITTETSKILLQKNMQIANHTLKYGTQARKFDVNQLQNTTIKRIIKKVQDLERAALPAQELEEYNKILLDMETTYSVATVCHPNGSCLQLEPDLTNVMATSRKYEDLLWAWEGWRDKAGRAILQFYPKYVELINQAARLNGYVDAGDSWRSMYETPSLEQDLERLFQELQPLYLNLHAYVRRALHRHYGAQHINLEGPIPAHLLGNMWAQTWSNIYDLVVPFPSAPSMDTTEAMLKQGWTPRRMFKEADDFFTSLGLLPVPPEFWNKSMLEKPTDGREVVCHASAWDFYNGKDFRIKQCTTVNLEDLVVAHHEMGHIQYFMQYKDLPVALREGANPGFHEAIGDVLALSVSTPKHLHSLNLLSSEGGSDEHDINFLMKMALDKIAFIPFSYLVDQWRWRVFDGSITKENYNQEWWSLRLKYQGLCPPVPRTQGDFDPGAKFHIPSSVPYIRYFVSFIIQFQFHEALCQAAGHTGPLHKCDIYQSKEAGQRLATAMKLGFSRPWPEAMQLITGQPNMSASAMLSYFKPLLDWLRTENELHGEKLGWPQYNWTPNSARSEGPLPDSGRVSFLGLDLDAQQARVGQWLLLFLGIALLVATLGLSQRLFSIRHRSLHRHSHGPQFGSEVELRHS
Test description: Inhibition of ACE at 100 uM
Each entry below carries its recorded inhibition.
Assay metric: inhibition (%)

> print(dat)
                             molecule.smiles                        measurement.target  unit.name  comparison.sign  observed
 1        O=c1c2ccc(O)c(O)c2oc2cc(O)cc(O)c12  Angiotensin-converting enzyme (Homo sapiens, UniProt P12821)          %                =      56.4
 2        O=c1c2ccc(O)c(O)c2oc2c(O)c(O)ccc12  Angiotensin-converting enzyme (Homo sapiens, UniProt P12821)          %                =      34.3
 3  CC(=O)Oc1cc2oc3c(OC(C)=O)c(OC(C)=O)ccc3c(=O)c2cc1OC(C)=O  Angiotensin-converting enzyme (Homo sapiens, UniProt P12821)          %                =      9.82
 4  CC(=O)Oc1cc2oc3cc(OC(C)=O)c(OC(C)=O)cc3c(=O)c2cc1OC(C)=O  Angiotensin-converting enzyme (Homo sapiens, UniProt P12821)          %                <         1
 5        O=c1c2cc(O)c(O)cc2oc2c(O)c(O)ccc12  Angiotensin-converting enzyme (Homo sapiens, UniProt P12821)          %                =      83.1
 6        O=c1c2cc(O)c(O)cc2oc2cc(O)cc(O)c12  Angiotensin-converting enzyme (Homo sapiens, UniProt P12821)          %                =      15.5
 7  CC(=O)Oc1ccc2c(=O)c3ccc(OC(C)=O)c(OC(C)=O)c3oc2c1OC(C)=O  Angiotensin-converting enzyme (Homo sapiens, UniProt P12821)          %                =         7
 8  CC(=O)Oc1cc(OC(C)=O)c2c(=O)c3cc(OC(C)=O)c(OC(C)=O)cc3oc2c1  Angiotensin-converting enzyme (Homo sapiens, UniProt P12821)          %                <         1
 9        O=c1c2cc(O)c(O)cc2oc2cc(O)c(O)cc12  Angiotensin-converting enzyme (Homo sapiens, UniProt P12821)          %                =      11.7
10  CC(=O)Oc1cc(OC(C)=O)c2c(=O)c3ccc(OC(C)=O)c(OC(C)=O)c3oc2c1  Angiotensin-converting enzyme (Homo sapiens, UniProt P12821)          %                <         1

Source of measurements: ChEMBL document CHEMBL1159033
